Where do the numbers come from? From ChEMBL document CHEMBL3885861.

Here, each record is paired with measured LIVER data.
Organism: Rattus norvegicus
assayRemarks: Open TG-GATES - Regimen: Daily Repeat
Assay type: toxicity, organism-based, Sprague-Dawley
Design: regimen Daily Repeat, gender Male, age 6 weeks
measurementSetup: in vivo, po, 0 mg/kg, […], tissue Liver, route gavage, dose level Control, time 7 day
# output: number + unit

Reference set, count: 2
- compound: "Cc1cccc(Nc2ccccc2C(=O)O)c1C [MEFENAMIC ACID]"
  LIVER: "11.4 g"
- compound: "CCOC(=O)[C@H](CCc1ccccc1)N[C@@H](C)C(=O)N1CCC[C@H]1C(=O)O"
  LIVER: "14 g"

Could you share which LIVER value was measured for C1CCC(C(CC2CCCCN2)C2CCCCC2)CC1 (stereo not drawn) [PERHEXILINE] ?
11.8 g
